experimental.protocol: CHI Log D procedure
Type: physicochemical
condition.context: pH 7.4, CHI Log D
Give chromatographic logD for every item shown.
Give bare numbers.

Here's what some known entries look like.
compound: CCCC[C@@H]1NC(=O)[C@H](CC(=O)O)NC(=O)C2(CCCC=CCCCCCC[C@@](C)(C(=O)N[C@@H](Cc3ccccc3)C(=O)N[C@@H](Cc3c[nH]c4ccccc34)C(=O)N[C@@H](CCC(N)=O)C(N)=O)NC(=O)[C@H](C(C)C)NC(=O)[C@H](Cc3ccccc3)NC(=O)[C@H](C)NC(=O)[C@H](C)NC1=O)CCCC=CC[C@]1(CCCN1C(C)=O)C(=O)N[C@@H](CC(=O)O)C(=O)N[C@@H](C)C(=O)N2 (single isomer, unassigned)
measure.name: chromatographic logD
recorded.value: 1.81
--
compound: CC(=O)N1CCC[C@]12CC=CCCCC1(CCCC=CCCCOC(=O)N3CC[C@@](C(=O)N[C@@H](Cc4ccsc4)C(=O)N[C@@H](Cc4csc5ccccc45)C(=O)N[C@@H](CCC(N)=O)C(N)=O)(C3)NC(=O)[C@H](CC(N)=O)NC(=O)[C@H](Cc3ccccc3)NC(=O)[C@H](C)NC(=O)[C@H](C)NC(=O)[C@H](Cc3ccc(O)cc3)NC(=O)[C@H](CC(=O)O)NC1=O)NC(=O)[C@H](CC(C)(C)C)NC(=O)[C@H](CC(=O)O)NC2=O (stereo partly drawn)
measure.name: chromatographic logD
recorded.value: 2.39
--
compound: CC(=O)N1CCC[C@]12CC=CCCCC1(CCCC=CCCCCCC[C@@](C)(C(=O)N[C@@H](Cc3cccs3)C(=O)N[C@@H](Cc3csc4ccccc34)C(=O)N[C@@H](CCC(N)=O)C(N)=O)NC(=O)[C@H](CCC(N)=O)NC(=O)[C@H](Cc3ccccc3)NC(=O)[C@H](C)NC(=O)[C@H](C)NC(=O)[C@H](CCC(=O)O)NC(=O)[C@H](CC(=O)O)NC1=O)NC(=O)[C@H](C)NC(=O)[C@H](CC(=O)O)NC2=O (stereo partly drawn)
measure.name: chromatographic logD
recorded.value: 1.99
--
compound: COCCOCCOCCOCCC(=O)NCCCC[C@H](NC(=O)[C@H](CCC(N)=O)NC(=O)[C@H](Cc1csc2ccccc12)NC(=O)[C@H](Cc1ccsc1)NC(=O)[C@]12CCN(C1)C(=O)OCCCC=CCCCC1(CCCC=CC[C@]3(CCCN3C(C)=O)C(=O)N[C@@H](CC(=O)O)C(=O)N[C@@H](CC(C)(C)C)C(=O)N1)C(=O)N[C@@H](CC(=O)O)C(=O)N[C@@H](CC(=O)O)C(=O)N[C@@H](C)C(=O)N[C@@H](C)C(=O)N[C@@H](Cc1ccccc1)C(=O)N[C@@H](CC(N)=O)C(=O)N2)C(N)=O (stereo partly drawn)
measure.name: chromatographic logD
recorded.value: 1.83
--
compound: CC(=O)N1CCC[C@]12CC=CCCCC1(CCCC=CCCCOC(=O)N3CC[C@@](C(=O)N[C@@H](Cc4ccsc4)C(=O)N[C@@H](Cc4csc5ccccc45)C(=O)N[C@H](Cc4c[nH]cn4)C(N)=O)(C3)NC(=O)[C@H](CC(N)=O)NC(=O)[C@H](Cc3ccccc3)NC(=O)[C@H](C)NC(=O)[C@H](C)NC(=O)[C@H](CC(=O)O)NC(=O)[C@H](CC(=O)O)NC1=O)NC(=O)[C@H](CC(C)(C)C)NC(=O)[C@H](CC(=O)O)NC2=O (stereo partly drawn)
measure.name: chromatographic logD
recorded.value: 2.17
--
compound: CC(=O)N[C@@H](C)C(=O)N[C@@H](CC(=O)O)C(=O)N[C@@H](C)C(=O)N[C@]1(C)CCN(C)C(=O)OCC=CCCCCC[C@@](C)(C(=O)N[C@@H](Cc2ccccc2)C(=O)N[C@@H](Cc2c[nH]c3ccccc23)C(=O)N[C@@H](Cc2c[nH]cn2)C(N)=O)NC(=O)[C@H](CCC(N)=O)NC(=O)[C@H](Cc2ccccc2)NC(=O)[C@H](C)NC(=O)[C@H](C)NC(=O)[C@H](CCC(=O)O)NC(=O)[C@H](CC(=O)O)NC1=O
measure.name: chromatographic logD
recorded.value: 1.07

The following compounds each have a reported value; give each one's chromatographic logD.
1. CC[C@H](C)[C@@H]1NC(=O)[C@H](CC(=O)O)NC(=O)[C@]2(CC=CCCCC3(CCCC=CCCCCCC[C@@](C)(C(=O)N[C@@H](Cc4ccccc4)C(=O)N[C@@H](Cc4csc5ccccc45)C(=O)N[C@@H](CCC(N)=O)C(N)=O)NC(=O)[C@H](CCC(N)=O)NC(=O)[C@H](Cc4ccccc4)NC(=O)[C@H](C)NC(=O)[C@H](C)NC(=O)[C@H](CCC(=O)O)NC(=O)C[C@@H](C(=O)O)NC3=O)NC1=O)CCCN2C(C)=O (stereo partly drawn)
2. CC(=O)N1CCC[C@]12CC=CCCCC1(CCCC=CCCCOC(=O)N3CC[C@@](C(=O)N[C@@H](Cc4ccccc4Cl)C(=O)N[C@@H](Cc4csc5ccccc45)C(=O)N[C@@H](CCC(N)=O)C(N)=O)(C3)NC(=O)[C@H](CO)NC(=O)[C@H](Cc3ccccc3)NC(=O)[C@H](C)NC(=O)[C@H](C)NC(=O)[C@H](CC(=O)O)NC(=O)[C@H](CC(=O)O)NC1=O)NC(=O)[C@H](Cc1cccc3ccccc13)NC(=O)[C@H](CC(=O)O)NC2=O (stereo partly drawn)
3. CC[C@H](C)[C@@H]1NC(=O)[C@H](CN(CC(=O)O)CC(F)(F)F)NC(=O)[C@H](CC(=O)O)NC(=O)C2(CCCC=CCCCOC(=O)N3CC[C@@](C(=O)N[C@@H](Cc4ccccc4Cl)C(=O)N[C@@H](Cc4csc5ccccc45)C(=O)N[C@@H](CCC(N)=O)C(N)=O)(C3)NC(=O)[C@H](CC(N)=O)NC(=O)[C@H](Cc3ccccc3)NC(=O)[C@H](C)NC1=O)CCCC=CC[C@]1(CCCN1C(C)=O)C(=O)N[C@@H](CC(=O)O)C(=O)N[C@@H](CC(C)(C)C)C(=O)N2 (stereo partly drawn)

-- reply
[1.87, 2.29, 2.36]

* * *

measured.on: full-length beta-Catenin (Uniprot ID P35222) (Homo sapiens, UniProt P35222)
Construct: 10 nM full-length beta-Catenin (Uniprot ID P35222)
Sequence (P35222 1-781): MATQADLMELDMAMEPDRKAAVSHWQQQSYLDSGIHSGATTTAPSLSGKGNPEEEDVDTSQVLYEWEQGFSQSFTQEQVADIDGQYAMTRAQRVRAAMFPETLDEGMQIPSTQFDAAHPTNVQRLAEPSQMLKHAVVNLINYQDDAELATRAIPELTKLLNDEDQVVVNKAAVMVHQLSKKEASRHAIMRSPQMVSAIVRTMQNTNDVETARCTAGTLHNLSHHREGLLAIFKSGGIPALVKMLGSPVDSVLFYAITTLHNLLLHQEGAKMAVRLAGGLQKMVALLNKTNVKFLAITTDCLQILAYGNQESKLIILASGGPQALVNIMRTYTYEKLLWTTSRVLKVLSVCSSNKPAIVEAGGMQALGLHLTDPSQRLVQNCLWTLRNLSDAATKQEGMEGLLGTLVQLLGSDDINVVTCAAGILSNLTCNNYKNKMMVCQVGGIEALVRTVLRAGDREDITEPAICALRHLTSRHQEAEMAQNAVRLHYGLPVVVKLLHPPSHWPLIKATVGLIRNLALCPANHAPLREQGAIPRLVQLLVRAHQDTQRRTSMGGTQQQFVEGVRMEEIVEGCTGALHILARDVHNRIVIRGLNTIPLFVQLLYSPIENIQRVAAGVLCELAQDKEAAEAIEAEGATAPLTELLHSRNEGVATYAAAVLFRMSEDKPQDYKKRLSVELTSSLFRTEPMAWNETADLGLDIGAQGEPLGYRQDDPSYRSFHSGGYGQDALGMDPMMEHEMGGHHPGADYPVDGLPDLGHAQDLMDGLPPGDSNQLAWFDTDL
experimental.protocol: Fluorescence polarization IC50 (beta-catenin / 5FAM-TCF4 10-53 competition)
Type: binding
condition.context: fluorescence polarization; read-out: beta-Catenin FP IC50
measure.name: IC50 (nM)
One number for each entry, in nM.

molecule: CC(=O)N1CCC[C@]12CC=CCCCC1(CCCC=CCCCOC(=O)N3CC[C@@](C(=O)N[C@@H](Cc4ccccc4C(F)(F)F)C(=O)N[C@@H](Cc4csc5ccccc45)C(=O)N[C@@H](CCC(N)=O)C(=O)N[C@@H](Cc4ccccc4)C(=O)N[C@@H](C)C(N)=O)(C3)NC(=O)[C@H](CC(C)C)NC(=O)[C@H](Cc3ccccc3)NC(=O)[C@H](C)NC(=O)[C@H](C)NC(=O)[C@H](Cc3cccc(C(=O)O)c3)NC(=O)[C@H](CC(=O)O)NC1=O)NC(=O)[C@H](CC(C)(C)C)NC(=O)[C@H](CC(=O)O)NC2=O (some centres unmarked)
IC50 (nM): 142

Let us examine a further case.
Test item C[C@@H]1NC(=O)[C@H](C)NC(=O)[C@H](CC(=O)O)NC(=O)[C@H](CC(=O)O)NC(=O)C2(CCCC=CCCCOC(=O)N3CC[C@@](C(=O)N[C@@H](Cc4ccsc4)C(=O)N[C@@H](Cc4csc5ccccc45)C(=O)N[C@@H](CCC(N)=O)C(N)=O)(C3)NC(=O)[C@H](CC(N)=O)NC(=O)[C@H](Cc3ccccc3)NC1=O)CCCC=CC[C@]1(CCCN1S(C)(=O)=O)C(=O)N[C@@H](CC(=O)O)C(=O)N[C@@H](CC(C)(C)C)C(=O)N2 (some centres unmarked) ; full-length beta-Catenin (Uniprot ID P35222) (Homo sapiens, UniProt P35222); reported IC50 was 10
